Compiled from multiple publications: IC50 readings for Maltase-glucoamylase (Homo sapiens, UniProt O43451).
Give bare numbers, in µM.

Reference set, count: 6
compound	IC50 (µM)
CCO[C@@H](CO)[C@H](O)C[S+]1C[C@@H](O)[C@H](O)[C@H]1CO (some centres not stated)	0.96
OC[C@@H]1[C@@H](O)[C@H](O)[C@@H](O)CN1CCCCCOCc1ccc(-c2ccccc2)cc1	2
CCCCCCCCCCCCCO[C@@H](CO)[C@H](O)C[S+]1C[C@@H](O)[C@H](O)[C@H]1CO (some centres not stated)	1.1
OC[C@@H]1[C@@H](O)[C@H](O)[C@@H](O)CN1CCCCCOCc1ccc(-c2ccccc2)cc1C(F)(F)F	8
C=C1CC[C@@H]2[C@](C)(CO)[C@H](O)CC[C@@]2(C)[C@@H]1/C=C/C1=CC(=C/c2ccc(OC)cc2)/OC1=O	16
OCC(CO)N[C@H]1C[C@](O)(CO)[C@@H](O)[C@H](O)[C@H]1O	1.3

Kindly give each listed record's IC50.
1. OC[C@@H]1[C@@H](O)[C@H](O)[C@@H](O)CN1CCCCCOCc1ccccc1-c1ccccc1
2. C[C@H](OCCCCCN1C[C@H](O)[C@@H](O)[C@H](O)[C@H]1CO)c1ccc(-c2ccccc2)cc1
3. CC1(C)C=Cc2c(ccc3c2OC2c4ccc(O)cc4OCC32)O1 (configuration not stated)
4. OC[C@@H]1[C@@H](O)[C@H](O)[C@@H](O)CN1CCCCCOCc1ccc(-c2ccccc2)c(C(F)(F)F)c1

[reply]
1. 1.5
2. 2.5
3. 6
4. 7

* * *

Compiled from multiple publications: pIC50 readings for Maltase-glucoamylase (Homo sapiens, UniProt O43451).
Answers are plain numbers, as −log10 of the molar value.

Reference set, count: 2
compound	pIC50
OC[C@@H]1[C@@H](O)[C@H](O)[C@@H](O)CN1CCCC(F)(F)COCc1ccc(-c2ccccc2)cc1	5.05
C[C@]1(CO)NC[C@H](O)[C@@H](O)[C@@H]1O.Cl	6.00

Next item in the queue.
Consider CC(C)CO[C@@H](CO)[C@H](O)C[S+]1C[C@@H](O)[C@H](O)[C@H]1CO (some centres undefined) . Its measured pIC50 is 6.16
